# target under test: SMase-treated LDL (Homo sapiens, UniProt P04114)
# Construct: from tissue; host or cells: pooled normolipemic human plasma
# Sequence (P04114 28-4563): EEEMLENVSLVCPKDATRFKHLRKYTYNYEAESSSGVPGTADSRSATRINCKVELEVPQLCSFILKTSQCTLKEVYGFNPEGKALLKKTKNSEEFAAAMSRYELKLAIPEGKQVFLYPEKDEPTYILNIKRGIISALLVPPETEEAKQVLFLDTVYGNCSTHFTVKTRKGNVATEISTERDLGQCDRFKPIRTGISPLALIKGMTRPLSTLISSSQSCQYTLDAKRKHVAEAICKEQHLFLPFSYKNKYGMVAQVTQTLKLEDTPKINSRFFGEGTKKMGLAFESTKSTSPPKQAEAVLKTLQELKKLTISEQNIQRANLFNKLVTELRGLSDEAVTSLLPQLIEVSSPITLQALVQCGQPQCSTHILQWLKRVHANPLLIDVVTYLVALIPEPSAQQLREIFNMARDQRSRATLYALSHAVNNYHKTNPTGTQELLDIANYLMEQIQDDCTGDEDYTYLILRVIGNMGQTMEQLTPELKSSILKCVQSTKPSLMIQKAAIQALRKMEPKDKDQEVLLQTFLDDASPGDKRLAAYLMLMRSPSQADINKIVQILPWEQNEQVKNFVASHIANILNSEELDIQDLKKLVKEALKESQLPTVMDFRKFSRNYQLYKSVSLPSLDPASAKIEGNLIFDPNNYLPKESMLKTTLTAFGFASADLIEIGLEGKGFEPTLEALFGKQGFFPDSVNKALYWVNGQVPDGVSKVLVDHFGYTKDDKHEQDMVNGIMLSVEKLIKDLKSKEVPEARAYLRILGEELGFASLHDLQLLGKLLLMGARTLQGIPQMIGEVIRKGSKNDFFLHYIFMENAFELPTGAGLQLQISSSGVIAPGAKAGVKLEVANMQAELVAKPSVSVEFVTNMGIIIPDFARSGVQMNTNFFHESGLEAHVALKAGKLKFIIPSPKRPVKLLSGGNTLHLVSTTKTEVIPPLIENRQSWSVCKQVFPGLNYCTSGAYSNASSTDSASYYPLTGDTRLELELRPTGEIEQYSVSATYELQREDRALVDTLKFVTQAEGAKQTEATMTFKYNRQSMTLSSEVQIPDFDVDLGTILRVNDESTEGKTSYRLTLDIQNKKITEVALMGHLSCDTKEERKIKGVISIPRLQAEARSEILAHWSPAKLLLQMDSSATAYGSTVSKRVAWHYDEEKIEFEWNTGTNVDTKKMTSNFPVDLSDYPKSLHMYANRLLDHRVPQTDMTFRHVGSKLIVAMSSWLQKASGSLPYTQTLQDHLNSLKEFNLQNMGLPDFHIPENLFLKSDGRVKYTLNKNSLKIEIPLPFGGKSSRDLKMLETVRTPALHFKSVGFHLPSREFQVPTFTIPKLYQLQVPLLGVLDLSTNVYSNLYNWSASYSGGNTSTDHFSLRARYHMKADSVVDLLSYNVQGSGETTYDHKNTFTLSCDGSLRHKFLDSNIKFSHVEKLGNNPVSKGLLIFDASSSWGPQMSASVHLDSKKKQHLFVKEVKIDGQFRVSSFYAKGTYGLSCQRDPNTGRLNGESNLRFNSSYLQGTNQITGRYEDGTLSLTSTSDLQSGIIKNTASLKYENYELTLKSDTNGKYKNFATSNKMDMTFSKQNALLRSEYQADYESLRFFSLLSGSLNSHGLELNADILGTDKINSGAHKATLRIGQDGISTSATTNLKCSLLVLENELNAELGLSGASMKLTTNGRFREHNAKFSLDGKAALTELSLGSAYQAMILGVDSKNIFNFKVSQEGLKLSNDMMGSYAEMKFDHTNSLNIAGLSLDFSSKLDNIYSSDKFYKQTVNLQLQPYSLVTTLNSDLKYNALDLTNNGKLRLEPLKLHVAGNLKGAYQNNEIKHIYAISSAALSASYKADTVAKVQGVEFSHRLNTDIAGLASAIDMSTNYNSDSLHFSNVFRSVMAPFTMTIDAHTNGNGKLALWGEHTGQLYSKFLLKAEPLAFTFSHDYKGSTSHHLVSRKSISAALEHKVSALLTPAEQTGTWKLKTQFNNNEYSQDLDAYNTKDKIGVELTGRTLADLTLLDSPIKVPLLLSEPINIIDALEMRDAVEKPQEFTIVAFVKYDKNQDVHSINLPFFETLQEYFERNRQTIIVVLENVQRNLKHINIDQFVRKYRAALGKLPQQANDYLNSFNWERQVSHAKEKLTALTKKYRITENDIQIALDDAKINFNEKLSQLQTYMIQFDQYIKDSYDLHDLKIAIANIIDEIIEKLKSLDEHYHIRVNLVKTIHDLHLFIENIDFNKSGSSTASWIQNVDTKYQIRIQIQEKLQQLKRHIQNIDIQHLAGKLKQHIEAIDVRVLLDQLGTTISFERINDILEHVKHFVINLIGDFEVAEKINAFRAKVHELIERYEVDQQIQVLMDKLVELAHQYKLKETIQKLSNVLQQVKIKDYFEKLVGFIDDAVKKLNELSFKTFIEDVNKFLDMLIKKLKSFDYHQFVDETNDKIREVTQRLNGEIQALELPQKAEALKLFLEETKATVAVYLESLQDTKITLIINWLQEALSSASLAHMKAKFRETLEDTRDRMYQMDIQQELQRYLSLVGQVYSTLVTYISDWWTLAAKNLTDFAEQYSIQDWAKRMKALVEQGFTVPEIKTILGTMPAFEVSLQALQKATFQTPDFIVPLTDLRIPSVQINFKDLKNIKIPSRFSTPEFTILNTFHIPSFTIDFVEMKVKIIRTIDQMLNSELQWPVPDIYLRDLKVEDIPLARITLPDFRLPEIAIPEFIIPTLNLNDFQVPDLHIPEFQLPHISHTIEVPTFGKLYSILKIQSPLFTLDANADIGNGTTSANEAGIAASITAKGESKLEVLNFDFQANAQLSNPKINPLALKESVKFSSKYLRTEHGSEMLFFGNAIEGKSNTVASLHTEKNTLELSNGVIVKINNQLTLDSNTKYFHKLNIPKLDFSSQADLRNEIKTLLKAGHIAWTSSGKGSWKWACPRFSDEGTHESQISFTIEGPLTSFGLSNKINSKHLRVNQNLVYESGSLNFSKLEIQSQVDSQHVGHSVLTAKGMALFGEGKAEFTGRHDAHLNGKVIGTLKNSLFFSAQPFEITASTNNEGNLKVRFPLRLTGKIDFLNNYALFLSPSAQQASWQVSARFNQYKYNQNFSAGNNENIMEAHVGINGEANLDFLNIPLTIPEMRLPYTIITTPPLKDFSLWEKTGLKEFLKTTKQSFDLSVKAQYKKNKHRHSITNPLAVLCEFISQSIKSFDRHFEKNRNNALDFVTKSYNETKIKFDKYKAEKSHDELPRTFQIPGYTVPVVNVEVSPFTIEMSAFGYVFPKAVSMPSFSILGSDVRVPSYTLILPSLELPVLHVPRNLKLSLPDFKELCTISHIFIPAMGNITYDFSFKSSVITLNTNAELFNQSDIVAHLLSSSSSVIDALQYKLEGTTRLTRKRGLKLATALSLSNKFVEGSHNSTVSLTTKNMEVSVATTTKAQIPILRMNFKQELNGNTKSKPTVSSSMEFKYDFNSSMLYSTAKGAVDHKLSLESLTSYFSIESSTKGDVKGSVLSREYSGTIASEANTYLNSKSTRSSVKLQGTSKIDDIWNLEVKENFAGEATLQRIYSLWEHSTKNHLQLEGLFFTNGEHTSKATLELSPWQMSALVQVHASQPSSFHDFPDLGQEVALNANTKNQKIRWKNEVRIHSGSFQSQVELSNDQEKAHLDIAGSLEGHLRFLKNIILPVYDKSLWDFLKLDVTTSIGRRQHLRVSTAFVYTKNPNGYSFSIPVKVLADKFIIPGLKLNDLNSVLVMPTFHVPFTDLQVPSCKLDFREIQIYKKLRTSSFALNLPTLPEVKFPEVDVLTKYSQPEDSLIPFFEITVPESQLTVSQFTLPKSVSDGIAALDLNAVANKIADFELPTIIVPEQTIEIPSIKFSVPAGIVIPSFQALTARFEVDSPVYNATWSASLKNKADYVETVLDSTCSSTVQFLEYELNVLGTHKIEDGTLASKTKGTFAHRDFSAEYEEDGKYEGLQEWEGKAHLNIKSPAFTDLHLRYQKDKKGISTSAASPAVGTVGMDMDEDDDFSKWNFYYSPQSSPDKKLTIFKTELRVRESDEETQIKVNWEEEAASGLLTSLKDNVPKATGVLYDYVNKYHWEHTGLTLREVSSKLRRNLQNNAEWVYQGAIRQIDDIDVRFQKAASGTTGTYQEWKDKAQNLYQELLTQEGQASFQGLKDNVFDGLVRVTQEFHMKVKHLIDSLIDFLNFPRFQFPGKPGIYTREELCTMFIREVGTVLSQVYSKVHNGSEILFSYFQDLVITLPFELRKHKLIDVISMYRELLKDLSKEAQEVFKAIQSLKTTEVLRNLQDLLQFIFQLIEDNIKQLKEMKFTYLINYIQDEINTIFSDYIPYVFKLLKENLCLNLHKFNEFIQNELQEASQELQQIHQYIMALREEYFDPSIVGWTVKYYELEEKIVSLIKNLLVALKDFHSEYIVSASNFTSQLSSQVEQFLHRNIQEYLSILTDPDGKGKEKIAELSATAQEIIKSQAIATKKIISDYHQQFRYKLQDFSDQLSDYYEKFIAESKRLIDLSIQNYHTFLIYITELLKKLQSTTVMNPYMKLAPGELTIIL
# method: Anti-LDL aggregation assay, turbidimetry, aggregation induced by sphingomyelinase (SMase)
# Format: biochemical
# measurement setup: peptide 10 μM (compound/ApoB-100 4.7/1), human LDL 1.44 mg/mL, 40 U/L Bacillus cereus SMase, 18 hours, 37° C., absorbance at 405 nm, Equation I
Where a SMILES comes first, the peptide text is derived from it. [ ]: non-standard residue; d: D form. ξ: configuration not given here. ξD = NC(CC(=O)O)C(=O)O
attribute measured: inhibition at 10 µM

>  <molecule>
CC(=O)N[C@H](CC(N)=O)C(=O)N[C@H](CC(=O)O)C(=O)N[C@H](CO)C(=O)N[C@H](CCC(=O)O)C(=O)N[C@H](CC(=O)O)C(=O)N[C@H](CC(N)=O)C(=O)N[C@H](CO)C(=O)NC(CC(=O)O)C(=O)N[C@H](CCC(=O)O)C(=O)N[C@H](CCC(=O)O)C(=O)N[C@H](C)C(N)=O (some centres unmarked) [Example 14] (Ac-[dN][dD][dS][dE][dD][dN][dS][ξD][dE][dE][dA]-NH2)

>  <inhibition at 10 µM>
68.3%

$$$$

Q: What value of measured inhibition at 10 µM is listed for CC(=O)N[C@H](CC(=O)O)C(=O)N[C@H](CO)C(=O)N[C@H](CCC(=O)O)C(=O)N[C@H](CC(=O)O)C(=O)N[C@H](CC(N)=O)C(=O)N[C@H](C)C(=O)N[C@H](CC(=O)O)C(=O)N[C@H](CCC(=O)O)C(=O)N[C@H](CCC(=O)O)C(=O)N[C@H](C)C(N)=O [Example 16] (Ac-[dD][dS][dE][dD][dN][dA][dD][dE][dE][dA]-NH2) ?
Result: 94%
